target: Proteasome subunit beta type-8 (Homo sapiens, UniProt P28062); assay: Inhibition of immunoproteasome-20S subunit beta5i in human PBMC assessed as substrate hydrolysis using suc-LLVY-AMC as substrate preincubated for 15 mins prior to substrate challenge measured for 120 mins by fluorescence analysis
property.label: IC50
Please report the result as a number followed by the unit.

// IC50 lookup, compound = Cc1sc(-c2nsc(=O)o2)cc1[N+](=O)[O-] , result: 0.22 µM

====

assay: Half life of the compound in RPMI medium at 75 uM by UPLC/MS analysis; type: physicochemical
property.label: half-life at 75 µM (h)
A number alone suffices; assume h.

// half-life at 75 µM lookup, molecule = CC(=O)Nc1cccc(-c2nsc(=O)o2)c1 , result: 1.36

// half-life at 75 µM lookup, molecule = CC(=O)N[C@H](Cc1ccccc1)C(=O)Nc1ccc(-c2nsc(=O)o2)cc1 , result: 0.878

====

biological target: Proteasome subunit beta type-8 (Homo sapiens) (UniProt P28062); experiment: Inhibition of immunoproteasome-20S subunit beta5i in human PBMC assessed as substrate hydrolysis using suc-LLVY-AMC as substrate measured for 120 mins by fluorescence analysis
Labelling field: enter MET if recorded Kinact is less than 0.0004 s⁻¹. Enter NOT MET if it equals or exceeds that cut-off.

Please check: Kinact for CC(=O)N[C@@H](Cc1ccccc1)C(=O)Nc1ccc(-c2nsc(=O)o2)cc1 , strictly under 0.0004 s⁻¹ or not?
MET

Please check: Kinact for O=c1oc(-c2ccccc2C(F)(F)F)ns1 , strictly under 0.0004 s⁻¹ or not?
MET

Please check: Kinact for O=c1oc(-c2cc(O)c(O)c(O)c2)ns1 , strictly under 0.0004 s⁻¹ or not?
NOT MET

Please check: Kinact for [N-]=[N+]=Nc1ccc(-c2nsc(=O)o2)cc1 , strictly under 0.0004 s⁻¹ or not?
NOT MET

Please check: Kinact for O=c1oc(-c2cccc([N+](=O)[O-])c2)ns1 , strictly under 0.0004 s⁻¹ or not?
MET

Please check: Kinact for O=c1oc(-c2cccc(CN3CCOCC3)c2)ns1 , strictly under 0.0004 s⁻¹ or not?
MET

Please check: Kinact for O=c1oc(-c2ccccn2)ns1 , strictly under 0.0004 s⁻¹ or not?
MET

Please check: Kinact for O=c1oc(-c2ccccc2)ns1 , strictly under 0.0004 s⁻¹ or not?
NOT MET

Please check: Kinact for O=c1oc(-c2cccc(-c3ccccc3)c2)ns1 , strictly under 0.0004 s⁻¹ or not?
NOT MET

Please check: Kinact for CC(C)(C)OC(=O)Nc1ccc(-c2nsc(=O)o2)cc1 , strictly under 0.0004 s⁻¹ or not?
MET

Please check: Kinact for O=c1oc(-c2ccc3[nH]ccc3c2)ns1 , strictly under 0.0004 s⁻¹ or not?
MET

Please check: Kinact for CC(=O)N[C@H](Cc1ccccc1)C(=O)Nc1ccc(-c2nsc(=O)o2)cc1 , strictly under 0.0004 s⁻¹ or not?
NOT MET

Please check: Kinact for Cc1sc(-c2nsc(=O)o2)cc1[N+](=O)[O-] , strictly under 0.0004 s⁻¹ or not?
NOT MET

Please check: Kinact for O=c1oc(-c2ccc(-c3ccccc3)cc2)ns1 , strictly under 0.0004 s⁻¹ or not?
NOT MET

====

species: Homo sapiens; experiment: Inhibition of constitutive proteasome 20S subunit beta5c in human RBC assessed as substrate hydrolysis using suc-LLVY-AMC as substrate measured for 120 mins by fluorescence analysis
property.label: Ratio

// Ratio lookup, compound = CC(=O)N[C@H](Cc1ccccc1)C(=O)Nc1cccc(-c2nsc(=O)o2)c1 , result: 0.34 M⁻¹ s⁻¹

// Ratio lookup, compound = [N-]=[N+]=Nc1ccc(-c2nsc(=O)o2)cc1 , result: 23.7 M⁻¹ s⁻¹

// Ratio lookup, compound = O=c1oc(-c2cc(O)c(O)c(O)c2)ns1 , result: 1.4 M⁻¹ s⁻¹

// Ratio lookup, compound = O=c1oc(-c2cccc([N+](=O)[O-])c2)ns1 , result: 10.3 M⁻¹ s⁻¹

// Ratio lookup, compound = O=c1oc(-c2ccccc2C(F)(F)F)ns1 , result: 1.6 M⁻¹ s⁻¹

// Ratio lookup, compound = O=c1oc(-c2ccc(-c3ccccc3)cc2)ns1 , result: 0.23 M⁻¹ s⁻¹

// Ratio lookup, compound = O=c1oc(-c2cccc(F)c2)ns1 , result: 13.2 M⁻¹ s⁻¹

// Ratio lookup, compound = CC(=O)N[C@@H](Cc1ccccc1)C(=O)Nc1ccc(-c2nsc(=O)o2)cc1 , result: 0.13 M⁻¹ s⁻¹

// Ratio lookup, compound = O=c1oc(-c2ccccc2)ns1 , result: 14.8 M⁻¹ s⁻¹

// Ratio lookup, compound = O=c1oc(-c2cccc(CN3CCOCC3)c2)ns1 , result: 2.3 M⁻¹ s⁻¹

// Ratio lookup, compound = CC(=O)N[C@H](Cc1ccccc1)C(=O)Nc1ccc(-c2nsc(=O)o2)cc1 , result: 0.7 M⁻¹ s⁻¹

// Ratio lookup, compound = O=c1oc(-c2ccc3[nH]ccc3c2)ns1 , result: 0.13 M⁻¹ s⁻¹

// Ratio lookup, compound = O=c1oc(-c2cccc(-c3ccccc3)c2)ns1 , result: 0.4 M⁻¹ s⁻¹

// Ratio lookup, compound = O=c1oc(-c2ccccn2)ns1 , result: 0.2 M⁻¹ s⁻¹

// Ratio lookup, compound = CC(=O)Nc1cccc(-c2nsc(=O)o2)c1 , result: 3.2 M⁻¹ s⁻¹

// Ratio lookup, compound = Cc1sc(-c2nsc(=O)o2)cc1[N+](=O)[O-] , result: 10.1 M⁻¹ s⁻¹

// Ratio lookup, compound = CC(C)(C)OC(=O)Nc1ccc(-c2nsc(=O)o2)cc1 , result: 2.4 M⁻¹ s⁻¹

====

Molecular target: Proteasome subunit beta type-8 (Homo sapiens, UniProt P28062)
Sequence (P28062 whole entry): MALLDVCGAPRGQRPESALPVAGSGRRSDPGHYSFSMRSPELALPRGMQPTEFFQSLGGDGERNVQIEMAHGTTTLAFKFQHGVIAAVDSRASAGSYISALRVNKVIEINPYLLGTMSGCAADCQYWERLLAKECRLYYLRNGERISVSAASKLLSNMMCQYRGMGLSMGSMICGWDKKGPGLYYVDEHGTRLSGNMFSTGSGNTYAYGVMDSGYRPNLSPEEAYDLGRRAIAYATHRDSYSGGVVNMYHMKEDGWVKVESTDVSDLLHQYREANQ
Experiment: Inhibition of immunoproteasome-20S subunit beta5i in human PBMC assessed as substrate hydrolysis using suc-LLVY-AMC as substrate measured for 120 mins by fluorescence analysis
Labelling field: enter label 1 if recorded Ki is less than 1000 nM. Enter label 0 if it equals or exceeds that cut-off.

Please check: Ki for O=c1oc(-c2ccc3[nH]ccc3c2)ns1 , strictly under 1000 nM or not?
label 0

Please check: Ki for CC(=O)N[C@H](Cc1ccccc1)C(=O)Nc1ccc(-c2nsc(=O)o2)cc1 , strictly under 1000 nM or not?
label 0

Please check: Ki for [N-]=[N+]=Nc1ccc(-c2nsc(=O)o2)cc1 , strictly under 1000 nM or not?
label 0

Please check: Ki for O=c1oc(-c2cccc(-c3ccccc3)c2)ns1 , strictly under 1000 nM or not?
label 0

Please check: Ki for O=c1oc(-c2cccc([N+](=O)[O-])c2)ns1 , strictly under 1000 nM or not?
label 1

Please check: Ki for O=c1oc(-c2cc(O)c(O)c(O)c2)ns1 , strictly under 1000 nM or not?
label 0

Please check: Ki for O=c1oc(-c2ccccc2)ns1 , strictly under 1000 nM or not?
label 0

Please check: Ki for O=c1oc(-c2ccccn2)ns1 , strictly under 1000 nM or not?
label 0

Please check: Ki for O=c1oc(-c2ccc(-c3ccccc3)cc2)ns1 , strictly under 1000 nM or not?
label 0

Please check: Ki for CC(C)(C)OC(=O)Nc1ccc(-c2nsc(=O)o2)cc1 , strictly under 1000 nM or not?
label 0

Please check: Ki for Cc1sc(-c2nsc(=O)o2)cc1[N+](=O)[O-] , strictly under 1000 nM or not?
label 1

Please check: Ki for O=c1oc(-c2ccccc2C(F)(F)F)ns1 , strictly under 1000 nM or not?
label 0

Please check: Ki for CC(=O)N[C@@H](Cc1ccccc1)C(=O)Nc1ccc(-c2nsc(=O)o2)cc1 , strictly under 1000 nM or not?
label 1

Please check: Ki for O=c1oc(-c2cccc(CN3CCOCC3)c2)ns1 , strictly under 1000 nM or not?
label 0

====

target: Proteasome subunit beta type-8 (Homo sapiens) (UniProt P28062); test: Inhibition of immunoproteasome-20S subunit beta5i in human PBMC assessed as substrate hydrolysis using suc-LLVY-AMC as substrate by fluorescence analysis; details: TDE = time-dependent effect
property.label: inhibition

[[record]]
chemical_smiles = "O=c1oc(-c2cccc([N+](=O)[O-])c2)ns1"
target_entity = "Proteasome subunit beta type-8 (Homo sapiens) (UniProt P28062)"
observed_value = "tde"

[[record]]
chemical_smiles = "O=c1oc(-c2ccccc2)ns1"
target_entity = "Proteasome subunit beta type-8 (Homo sapiens) (UniProt P28062)"
observed_value = "tde"

[[record]]
chemical_smiles = "O=c1oc(-c2ccccc2C(F)(F)F)ns1"
target_entity = "Proteasome subunit beta type-8 (Homo sapiens) (UniProt P28062)"
observed_value = "tde"

